Biological target: T1, rat NPR1 (rNPR1) (rat, UniProt P18910 29-469, limits assumed)
T1 construct: Soluble antigen
T1 sequence: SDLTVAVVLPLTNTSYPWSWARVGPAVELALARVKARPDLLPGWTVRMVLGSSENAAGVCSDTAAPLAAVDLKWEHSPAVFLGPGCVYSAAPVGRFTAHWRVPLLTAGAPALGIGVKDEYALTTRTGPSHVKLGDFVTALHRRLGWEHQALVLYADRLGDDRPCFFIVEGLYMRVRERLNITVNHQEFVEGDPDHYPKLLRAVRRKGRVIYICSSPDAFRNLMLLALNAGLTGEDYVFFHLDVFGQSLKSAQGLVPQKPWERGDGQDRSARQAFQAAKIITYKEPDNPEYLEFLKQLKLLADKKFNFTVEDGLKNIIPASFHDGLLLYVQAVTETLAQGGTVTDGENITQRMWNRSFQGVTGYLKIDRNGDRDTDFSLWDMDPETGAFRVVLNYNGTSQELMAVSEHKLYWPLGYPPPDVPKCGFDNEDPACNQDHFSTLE
Assay: SET, FabCys
Entries and their Kd values follow.

>  <binder>
ZZ13 (FabCys format) (Fab, V domains shown, Monovalent FabCys) VH: EVQLVESGGGLVQPGGSLRLSCAASGFTFSRYYINWVRQAPGKGLEWVASIHQHGLETRYVESVKGRFTISRDNAKNSLYLQMNSLRAEDTAVYYCARSLRRRSTEHAGFDVWGQGTLVTVSS VL: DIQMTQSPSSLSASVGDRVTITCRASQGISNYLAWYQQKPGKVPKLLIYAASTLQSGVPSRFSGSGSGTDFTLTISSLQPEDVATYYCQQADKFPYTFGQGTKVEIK

>  <display.unit>
nM

>  <Kd>
2.3

$$$$
>  <binder>
ZZ12 (FabCys format) (Fab, V domains shown, Monovalent FabCys) VH: EVQLVESGGGLVQPGGSLRLSCAASGFSFSKYYLNWVRQAPGKGLEWVASIHQQAHEKKYVESVKGRFTISRDNAKNSLYLQMNSLRAEDTAVYYCARSLRRRSTEHAGFDVWGQGTLVTVSS VL: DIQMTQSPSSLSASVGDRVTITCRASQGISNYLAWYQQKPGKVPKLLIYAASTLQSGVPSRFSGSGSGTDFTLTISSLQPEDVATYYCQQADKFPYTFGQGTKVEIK

>  <display.unit>
nM

>  <Kd>
2.1

$$$$
>  <binder>
ZZ17 (FabCys format) (Fab, V domains shown, Monovalent FabCys) VH: EVQLLESGGGLVQPGGSLRLSCAASGFTFSDYAISWVRQAPGKGLEWVSSISGGGYHTQYAGSVKGRFTISRDNSKNTLYLQMNSLRAEDTAVYYCARPYLGDRRSYGFDHWGQGTLVTVSS VL: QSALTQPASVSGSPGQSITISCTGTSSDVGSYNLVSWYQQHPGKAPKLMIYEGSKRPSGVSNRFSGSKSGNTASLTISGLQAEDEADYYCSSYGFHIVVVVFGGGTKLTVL

>  <display.unit>
nM

>  <Kd>
52

$$$$
>  <binder>
ZZ16 (FabCys format) (Fab, V domains shown, Monovalent FabCys) VH: EVQLLESGGGLVQPGGSLRLSCAASGFTFGTYAMTWVRQAPGKGLEWVSSISASGYYANYAGSVKGRFTISRDNSKNTLYLQMNSLRAEDTAVYYCARPYLGDRRSYGFDHWGQGTLVTVSS VL: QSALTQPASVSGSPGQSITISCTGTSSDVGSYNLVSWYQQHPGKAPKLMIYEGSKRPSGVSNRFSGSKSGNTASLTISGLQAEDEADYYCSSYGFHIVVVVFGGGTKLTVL

>  <display.unit>
nM

>  <Kd>
62

$$$$
